biological target: Cytochrome P450 2C9 (Homo sapiens); assay: Cytochrome panel assay with activity outcomes; details: recombinant CYP, pro-luciferin dealkylation, luminescence, p450-cyp2c9; series mostly up to 57.1 µM
Hit rate of the full screen: of about 16,000 compounds, about 4,000 (25%) were called active. Another 26% or so got no clear call; they are omitted. Not all results are given here.
MEASURED_METRIC: AC50

The cases that follow already have their AC50 on record.
NCCNC(=O)c1ccc(Cl)cc1 ... inactive
CC(=O)OCCNC(=O)c1cccnc1 ... inactive
CCNC(=S)N1CC(C)OC(C)C1 (stereo not drawn) ... inactive
NC(=O)C1CCN(C(=O)CN2C(=O)c3ccccc3S2(=O)=O)CC1 ... inactive
CC(C)Oc1ccc(CSC(=N)N)cc1 ... inactive
O=C(c1cc(-c2ccc(Cl)cc2Cl)on1)N1CCN(C(=O)c2ccco2)CC1 ... 7.08 µM (active)
Cc1cccc(N(CC(=O)NCCSCc2ccco2)S(=O)(=O)c2ccccc2)c1 ... 4.47 µM (active)

Next item in the queue.
get_value(item= O=C(c1ccco1)N1CCN(C(=O)c2nn3cccnc3c2Cl)CC1 , readout=AC50) returns inactive

* * *

Target: Cytochrome P450 2C9 (Homo sapiens) (UniProt P11712)
Sequence (P11712 whole entry, looked up): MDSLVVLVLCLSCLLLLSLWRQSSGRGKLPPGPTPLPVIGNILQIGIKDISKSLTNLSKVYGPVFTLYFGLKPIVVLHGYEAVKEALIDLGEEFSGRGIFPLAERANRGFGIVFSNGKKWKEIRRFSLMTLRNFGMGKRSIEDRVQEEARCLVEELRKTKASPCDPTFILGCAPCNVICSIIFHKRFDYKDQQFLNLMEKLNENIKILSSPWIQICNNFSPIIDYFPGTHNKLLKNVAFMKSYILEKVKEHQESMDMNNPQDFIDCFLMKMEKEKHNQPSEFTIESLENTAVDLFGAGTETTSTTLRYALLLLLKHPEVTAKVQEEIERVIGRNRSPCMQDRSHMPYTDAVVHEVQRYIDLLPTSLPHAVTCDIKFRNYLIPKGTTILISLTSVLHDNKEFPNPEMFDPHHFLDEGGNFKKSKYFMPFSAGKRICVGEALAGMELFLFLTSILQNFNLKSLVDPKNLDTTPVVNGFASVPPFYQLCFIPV
Experiment: Cytochrome panel assay with activity outcomes; on activity, negative = inhibition: on the % scale 0 is the no-effect control and ±100 the full control effect
Conditions: recombinant CYP, pro-luciferin dealkylation, luminescence, p450-cyp2c9; series mostly up to 57.1 µM
Protocol: The P450 gene superfamily is involved in the metabolism and clearance of xenobiotics. This assay used various human CYP P450 isozymes to measure the dealkylation of various pro-luciferin substrates to luciferin. The luciferin is then measured by luminescence after the addition of a luciferase detection reagent. […] Inhibitors and some substrates limit the production of luciferin, and decrease measured luminescence. […] 8, Detection, 1 sec, ViewLux luminescent read […]
Hit rate of the full screen: of about 16,000 compounds, about 4,000 (25%) were called active. Not shown: some 26% with an inconclusive outcome. These entries were drawn from the full list.
// values below are reported activity, negative = inhibition

The cases that follow already have their activity, negative = inhibition on record.
N#Cc1cccc(-c2nccc(NCc3ccccc3)n2)c1 ... -19.1% [at 2.29 µM] (inactive)
COC(=O)C/C=C\[C@@H](C)[C@@H]1C=C[C@H](OC(C)=O)[C@H](COC(C)=O)O1 ... 14.8% [at 11.4 µM] (inactive)
Cc1cnc(CNc2ncncc2-c2ccc(C(=O)N(C)C)cc2)cn1 ... 26.6% [at 2.29 µM] (inactive)
Cn1c(=O)c2[nH]c(CCCc3ccc([N+](=O)[O-])cc3)nc2n(C)c1=O ... 1.93% [at 11.4 µM] (inactive)
CO[C@@H]1COC(=O)C/C=C\[C@@H](C)[C@H](OC)COC(=O)[C@@H](C)COC(=O)C/C=C\[C@H]1C ... 11.9% [at 11.4 µM] (inactive)

Entry O=C1NC(=O)[C@@](Cc2ccccc2)(c2cccnc2)N1 , Cytochrome P450 2C9 (Homo sapiens) (UniProt P11712) data, activity, negative = inhibition value: -6.71% [at 11.4 µM] (inactive)

Entry CN(C)c1ncnc2ccc(-c3ccoc3)cc12 , Cytochrome P450 2C9 (Homo sapiens) (UniProt P11712) data, activity, negative = inhibition value: -6.22% [at 2.29 µM] (inactive)

Entry CCN1C(=O)[C@H]2[C@H]3[C@H](O)[C@H](O)C/C(=N/O[C@@H]4O[C@@H](COC(C)=O)[C@@H](OC(C)=O)[C@@H](OC(C)=O)[C@H]4OC(C)=O)[C@H]3CC[C@@H]2C1=O , Cytochrome P450 2C9 (Homo sapiens) (UniProt P11712) data, activity, negative = inhibition value: 23.1% [at 11.4 µM] (inactive)

Entry OCCCNCc1ccccn1 , Cytochrome P450 2C9 (Homo sapiens) (UniProt P11712) data, activity, negative = inhibition value: 9.34% [at 11.4 µM] (inactive)

Entry CCN(CC)CCN1C(=O)c2cccc3cc(N)cc(c23)C1=O , Cytochrome P450 2C9 (Homo sapiens) (UniProt P11712) data, activity, negative = inhibition value: 13.4% [at 11.4 µM] (inactive)
